# tested.system: T1, HLA-A*0201 molecule expressed on human T2 cells (human)
# T1 construct: surface HLA-A2 detected with anti-HLA-A2-PE (clone REA517); also called HLA-A2
# protocol.text: T2 cell HLA-A*0201 binding assay, anti-HLA-A2-PE flow cytometry
attribute.measured: in vitro binding affinity (relative affinity, normalized against HIV-pol)

binder="ALYDVRTILL (also called UBEC2-H11; ENT168-HL) [UBE2C-H11]" observed_value="8.7 ratio to HIV pol reference peptide"
binder="RLQQELMTL [UBE2C-H3]" observed_value="1.1 ratio to HIV pol reference peptide"
binder="VLNPELLML (also called ENT207_B4) [KIF2C-B13]" observed_value="0.8 ratio to HIV pol reference peptide"
binder="TLDQKLFMV (also called ENT180_B1) [ANKRD30A-B3]" observed_value="0.2 ratio to HIV pol reference peptide"
binder="ALNPELLAL (also called ENT207_B1; ENT_207-B1) [KIF2C-B1]" observed_value="1.6 ratio to HIV pol reference peptide"
binder="ALYSEILTV (also called ENT169_B1; ENT_169-B1) [ANKRD30A-B1]" observed_value="0.04 ratio to HIV pol reference peptide"
binder="VMNPELLLL (also called ENT207_B3) [KIF2C-B12]" observed_value="1.1 ratio to HIV pol reference peptide"
binder="KILDTVHSC [ANKRD30A-H2]" observed_value="29.9 ratio to HIV pol reference peptide"
binder="AQIGIVAVV [OR51E2-H1]" observed_value="6.2 ratio to HIV pol reference peptide"
binder="YLILEYAPL [AURKA-H1]" observed_value="22.8 ratio to HIV pol reference peptide"
binder="LILDTVHSL (also called ENT174_B1) [ANKRD30A-B2]" observed_value="1.3 ratio to HIV pol reference peptide"
